Cited source: paper PMC9318694

target: D2R (Homo sapiens); assay: HTRF competitive binding screening of virtual hits at 10 µM (normalized decrease in fluorescence); conditions: Table 3; 10 µM, n = 4, normalized to the control
Sequence (P14416 whole entry): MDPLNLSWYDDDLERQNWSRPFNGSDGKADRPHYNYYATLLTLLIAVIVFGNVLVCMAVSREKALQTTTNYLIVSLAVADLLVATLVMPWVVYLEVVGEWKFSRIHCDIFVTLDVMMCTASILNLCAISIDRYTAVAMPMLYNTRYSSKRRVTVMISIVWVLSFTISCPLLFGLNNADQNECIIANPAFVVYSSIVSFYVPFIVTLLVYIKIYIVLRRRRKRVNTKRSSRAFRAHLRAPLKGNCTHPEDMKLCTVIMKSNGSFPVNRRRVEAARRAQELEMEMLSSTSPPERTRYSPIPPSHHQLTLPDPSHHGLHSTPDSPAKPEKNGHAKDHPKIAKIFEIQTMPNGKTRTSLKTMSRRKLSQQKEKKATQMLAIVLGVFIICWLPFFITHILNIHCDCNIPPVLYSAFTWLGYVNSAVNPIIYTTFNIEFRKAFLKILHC
Reported values of Normalized Decrease in Fluorescence ± SD for individual entries
Reply with just the number.

- compound: "CCN1CCC[C@H]1CNC(=O)c1cc(S(N)(=O)=O)ccc1OC [Sulpiride, (S)-(−)-sulpiride]"
  measured quantity: "Normalized Decrease in Fluorescence ± SD"
  quantitative result: 30.65
- compound: "O[C@H](CNCCNc1ccc(C(F)(F)F)cn1)CSc1ccc(F)cc1 [Compound 18]"
  measured quantity: "Normalized Decrease in Fluorescence ± SD"
  quantitative result: 10.85
- compound: "CN1CCN(C2Cc3ccc(O)cc3Sc3ccc(Cl)cc32)CC1 (centres unmarked) [Compound 14]"
  measured quantity: "Normalized Decrease in Fluorescence ± SD"
  quantitative result: 40.40
- compound: "NC(=O)c1ccccc1OCCCN1CCN(c2ccccc2)CC1 [Compound 19]"
  measured quantity: "Normalized Decrease in Fluorescence ± SD"
  quantitative result: 22.08
- compound: "O=C(CCCN1CC=C(n2c(=O)[nH]c3ccccc32)CC1)c1ccc(F)cc1 [Droperidol, droperidol]"
  measured quantity: "Normalized Decrease in Fluorescence ± SD"
  quantitative result: 38.69
- compound: "c1cnc(N2CCN(Cc3ccc4c(c3)OCO4)CC2)nc1 [Piribedil, piribedil]"
  measured quantity: "Normalized Decrease in Fluorescence ± SD"
  quantitative result: 9.21

# Normalized Decrease in Fluorescence ± SD of NS(=O)(=O)c1ccc(CCNCc2ccc(-c3cc(Cl)ccc3Cl)o2)cc1 [Compound 15] = 3.99

# Normalized Decrease in Fluorescence ± SD of CC(C)C[C@H]1C(=O)N2CCC[C@H]2[C@]2(O)O[C@](NC(=O)[C@@H]3C=C4c5cccc6[nH]c(Br)c(c56)C[C@H]4N(C)C3)(C(C)C)C(=O)N12 [Compound 2, Bromocriptine] = 39.10

###

molecular target: D2R (Homo sapiens); assay: HTRF KI determination of the selected ligands; assay type: binding; details: Table 4
measured quantity: Fold Difference in comparison to the determined KI of dopamine

Below are worked cases with known answers.
- compound: "O=C(CCN1CCN(c2ccccc2F)CC1)Nc1cccc(F)c1"
  result: 9.0
- compound: "O[C@H](CNCCNc1ccc(C(F)(F)F)cn1)CSc1ccc(F)cc1"
  result: 4.2
- compound: "CCN(CCC(=O)Nc1cccc(OC)c1)Cc1ccccc1"
  result: 1.1
- compound: "NS(=O)(=O)c1ccc(CCNCc2ccc(-c3cc(Cl)ccc3Cl)o2)cc1"
  result: 2.6

# Fold Difference in comparison to the determined KI of dopamine of NC(=O)c1ccccc1OCCCN1CCN(c2ccccc2)CC1 = 34.7

# Fold Difference in comparison to the determined KI of dopamine of CN1CCN(C2Cc3ccc(O)cc3Sc3ccc(Cl)cc32)CC1 (stereo not drawn) = 2700

###

biological target: D2R (Homo sapiens); assay: HTRF KI determination of the selected ligands; format: binding; conditions: Table 4; n = 6
measured quantity: Ki
Kindly format the answer as number then unit.

Below are worked cases with known answers.
- compound: "NS(=O)(=O)c1ccc(CCNCc2ccc(-c3cc(Cl)ccc3Cl)o2)cc1"
  measured quantity: "Ki"
  result: "4310 nM"
- compound: "O=C(CCN1CCN(c2ccccc2F)CC1)Nc1cccc(F)c1"
  measured quantity: "Ki"
  result: "1240 nM"
- compound: "O[C@H](CNCCNc1ccc(C(F)(F)F)cn1)CSc1ccc(F)cc1"
  measured quantity: "Ki"
  result: "2630 nM"
- compound: "CN1CCN(C2Cc3ccc(O)cc3Sc3ccc(Cl)cc32)CC1 (stereo not drawn)"
  measured quantity: "Ki"
  result: "4 nM"

# NC(=O)c1ccccc1OCCCN1CCN(c2ccccc2)CC1 with D2R (Homo sapiens): Ki is 320 nM

# CCN(CCC(=O)Nc1cccc(OC)c1)Cc1ccccc1 with D2R (Homo sapiens): Ki is 10000 nM

###

target: D2R (Homo sapiens); experiment: HTRF KI determination of the selected ligands; format: binding

- compound: "NS(=O)(=O)c1ccc(CCNCc2ccc(-c3cc(Cl)ccc3Cl)o2)cc1 [Compound 15]"
  activity (KI range in words): "micromolar"
- compound: "O[C@H](CNCCNc1ccc(C(F)(F)F)cn1)CSc1ccc(F)cc1 [Compound 18]"
  activity (KI range in words): "micromolar"
- compound: "O=C(CCN1CCN(c2ccccc2F)CC1)Nc1cccc(F)c1 [Compound 17]"
  activity (KI range in words): "micromolar"

###

Reported values of NDF (normalized decreased fluorescence) ± SD for individual entries
molecular target: UniProtKB P14416; experiment: HTRF competitive binding screening of virtual hits at 10 µM (normalized decrease in fluorescence); conditions: Table S9; all selected virtual hits, n = 4, 10 µM
Reply with just the number.

Below are worked cases with known answers.
- compound: "O=C(CCN1CCN(c2ccccc2F)CC1)Nc1cccc(F)c1"
  quantitative result: 8.18
- compound: "CC1CC(C)CN(CCC(=O)Nc2ccc(F)c(F)c2)C1 (centres unmarked)"
  quantitative result: 1.05
- compound: "C=CC1CN2CCC1CC2C(O)c1ccnc2ccc(O)cc12 (centres unmarked)"
  quantitative result: 1.13
- compound: "O[C@H](CNCCNc1ccc(C(F)(F)F)cn1)CSc1ccc(F)cc1"
  quantitative result: 10.85
- compound: "CCN(CCC(=O)Nc1cccc(OC)c1)Cc1ccccc1"
  quantitative result: 15.74

# NDF (normalized decreased fluorescence) ± SD of NS(=O)(=O)c1ccc(CCNCc2ccc(-c3cc(Cl)ccc3Cl)o2)cc1 = 3.99

# NDF (normalized decreased fluorescence) ± SD of CC/N=C1/SC(CC(=O)Nc2ccccc2C(F)(F)F)C(=O)N1CC (centres unmarked) = 0.84

# NDF (normalized decreased fluorescence) ± SD of NC(=O)c1ccccc1OCCCN1CCN(c2ccccc2)CC1 = 22.08

###

biological target: D2R (Homo sapiens); test: HTRF competitive binding screening of virtual hits at 10 µM (normalized decrease in fluorescence); details: Table 3; 10 µM, n = 4, normalized to the control
Reported values of Normalized Decrease in Fluorescence ± SD for individual entries
Reply with just the number.

Below are worked cases with known answers.
- compound: "CCN(CCC(=O)Nc1cccc(OC)c1)Cc1ccccc1 [Compound 16]"
  Normalized Decrease in Fluorescence ± SD: 15.74
- compound: "O=C(CCN1CCN(c2ccccc2F)CC1)Nc1cccc(F)c1 [Compound 17]"
  Normalized Decrease in Fluorescence ± SD: 8.18

Switching to the query record.
# Normalized Decrease in Fluorescence ± SD of CN1CCc2cccc3c2[C@H]1Cc1ccc(O)c(O)c1-3 [Compound 1, Apomorphine] = 9.44
